System: H1975 (lung adenocarcinoma, DM, L828R/T790M)
assay-text: Antiproliferative activity on H1975 cells (Alamar Blue)
Type: cell-based
applied-conditions: selectivity index, A549 vs H1975 cells
measured-property: SI IC50(A549)/IC50(DM)
In your answer, state the number alone without any accompanying words.

Ask: Give the measured SI IC50(A549)/IC50(DM) of C=CC(=O)Nc1cc(Nc2nccc(C(=O)c3ccc(OC4CCCCC4)cc3)n2)c(OC)cc1N(C)CCN(C)C .
Reply: 11

Ask: Query C=CC(=O)Nc1cc(Nc2nccc(C(=O)c3ccc(NCCOC)cc3)n2)c(OC)cc1N(C)CCN(C)C next
Reply: 3898

Ask: Query C=CC(=O)Nc1cc(Nc2nccc(C(=O)c3ccc(N4CC[C@H](OC)C4)cc3)n2)c(OC)cc1N(C)CCN(C)C next
Reply: 1175

Ask: Query C=CC(=O)Nc1cc(Nc2nccc(C(=O)c3ccc(N4CCC[C@@H](O)C4)cc3)n2)c(OC)cc1N(C)CCN(C)C next
Reply: 2043

* * *

Kindly supply the reported Stability in SGF, % values for the records listed here.
assay-text: Chemical stability in simulated gastric fluid (SGF)
Type: physicochemical
applied-conditions: SGF without enzymes, pH 1,4; 10 μm; 2 hours at 37° C.; substance amount remaining
Structures can show the parent of a compound that is named as a salt.
Field: numeric (%). Do not append units.

Ask: Give the measured Stability in SGF, % of C=CC(=O)Nc1cc(Nc2nccc(C(=O)c3ccc(N4CCN(C)CC4)cc3)n2)c(OC)cc1N(C)CCN(C)C [EGFR_3365_62, formate] .
Reply: 100.0

Ask: Query C=CC(=O)Nc1cc(Nc2cc(C(=O)c3ccc(OC)cc3)ccn2)c(OC)cc1N(C)CCN(C)C next
Reply: 100.0

Ask: Query C=CC(=O)Nc1cc(Nc2cc(C(=O)c3ccc(N4CCCC4)cc3)ccn2)c(OC)cc1N(C)CCN(C)C next
Reply: 99.8

Ask: Query C=CC(=O)Nc1cc(Nc2nccc(C(=O)c3ccc(-n4ccnc4)cc3)n2)c(OC)cc1N(C)CCN(C)C next
Reply: 99.7

Ask: Query C=CC(=O)Nc1cc(Nc2nccc(C(=O)c3cccc(OC)c3)n2)c(OC)cc1N(C)CCN(C)C next
Reply: 98.0

Ask: Query C=CC(=O)Nc1cc(Nc2nccc(C(=O)c3ccc(OC(C)C)cc3OC(C)C)n2)c(OC)cc1N(C)CCN(C)C next
Reply: 100.0

Ask: Query C=CC(=O)Nc1cc(Nc2nccc(C(=O)c3ccc(F)cc3)n2)c(OC)cc1N(C)CCN(C)C next
Reply: 100.0

Ask: Query C=CC(=O)Nc1cc(Nc2nccc(C(=O)c3ccccc3[N+](=O)[O-])n2)c(OC)cc1N(C)CCN(C)C next
Reply: 100.0

Ask: Query C=CC(=O)Nc1cc(Nc2cc(C(=O)c3ccccc3)ccn2)c(OC)cc1N(C)CCN(C)C next
Reply: 100.0

Ask: Query C=CC(=O)Nc1cc(Nc2cc(C(=O)c3ccc(C)cc3)ccn2)c(OC)cc1N(C)CCN(C)C next
Reply: 100.0

Ask: Query C=CC(=O)Nc1cc(Nc2nccc(C(=O)c3ccc(OC)cc3OC)n2)c(OC)cc1N(C)CCN(C)C next
Reply: 100.0

Ask: Query C=CC(=O)Nc1cc(Nc2cc(C(=O)c3ccc(-c4cnn(C)c4)cc3)ccn2)c(OC)cc1N(C)CCN(C)C next
Reply: 100.0

Ask: Query C=CC(=O)Nc1cc(Nc2nccc(C(=O)c3ccc(Br)cc3)n2)c(OC)cc1N(C)CCN(C)C next
Reply: 98.9

Ask: Query C=CC(=O)Nc1cc(Nc2nccc(C(=O)c3ccc(Oc4ccccc4)cc3)n2)c(OC)cc1N(C)CCN(C)C next
Reply: 100.0

Ask: Query C=CC(=O)Nc1cc(Nc2nccc(C(=O)c3ccc(C)cc3)n2)c(OC)cc1N(C)CCN(C)C next
Reply: 100.0

Ask: Query C=CC(=O)Nc1cc(Nc2cc(C(=O)c3ccc(N4CC(OC)C4)cc3)ccn2)c(OC)cc1N(C)CCN(C)C (racemic) next
Reply: 100.0

Ask: Query C=CC(=O)Nc1cc(Nc2nccc(C(=O)c3ccc(N4CCC4)cc3)n2)c(OC)cc1N(C)CCN(C)C next
Reply: 89.9

Ask: Query C=CC(=O)Nc1cc(Nc2nccc(C(=O)c3ccc(OCCC)cc3OCCC)n2)c(OC)cc1N(C)CCN(C)C next
Reply: 100.0

Ask: Query C=CC(=O)Nc1cc(Nc2cc(C(=O)c3ccc(N4CCN(C)CC4)cc3)ccn2)c(OC)cc1N(C)CCN(C)C next
Reply: 98.8

Ask: Query C=CC(=O)Nc1cc(Nc2nccc(C(=O)c3ccccc3C(F)(F)F)n2)c(OC)cc1N(C)CCN(C)C next
Reply: 100.0

Ask: Query C=CC(=O)Nc1cc(Nc2nccc(C(=O)c3ccccc3OC)n2)c(OC)cc1N(C)CCN(C)C next
Reply: 99.5

Ask: Query C=CC(=O)Nc1cc(Nc2nccc(C(=O)c3ccc(OCCCC)cc3)n2)c(OC)cc1N(C)CCN(C)C next
Reply: 100.0

Ask: Query C=CC(=O)Nc1cc(Nc2nccc(C(=O)c3ccc(OCC)cc3OCC)n2)c(OC)cc1N(C)CCN(C)C next
Reply: 100.0

Ask: Query C=CC(=O)Nc1cc(Nc2nccc(C(=O)c3ccc(N4CCCC4)cc3)n2)c(OC)cc1N(C)CCN(C)C next
Reply: 100.0

Ask: Query C=CC(=O)Nc1cc(Nc2nccc(C(=O)c3ccc(OC)cc3)n2)c(OC)cc1N(C)CCN(C)C next
Reply: 100.0

Ask: Query C=CC(=O)Nc1cc(Nc2nccc(C(=O)c3ccc(OCC)cc3)n2)c(OC)cc1N(C)CCN(C)C next
Reply: 98.1

Ask: Query C=CC(=O)Nc1cc(Nc2nccc(C(=O)c3cccc(F)c3)n2)c(OC)cc1N(C)CCN(C)C next
Reply: 100.0

Ask: Query C=CC(=O)Nc1cc(Nc2cc(C(=O)c3ccc(N4CCOCC4)cc3)ccn2)c(OC)cc1N(C)CCN(C)C.O=C(O)C(F)(F)F next
Reply: 100.0

Ask: Query C=CC(=O)Nc1cc(Nc2nccc(C(=O)c3ccc(OC(C)C)cc3)n2)c(OC)cc1N(C)CCN(C)C next
Reply: 100.0

* * *

assay-text: Enzyme stability in human liver S9 fractions
Assay type: in vitro ADME
applied-conditions: 0.5 mg/mL pooled human liver S9 fractions; 10 μM compound; 37° C.; pH 7.4; read-out: Stability in liver S9 fractions, Clint
measured-property: Intrinsic clearance in human liver S9 fractions at 10 µM (µL/min/mg)
Field: numeric (µL/min/mg). Do not append units.

Ask: Give the measured Intrinsic clearance in human liver S9 fractions at 10 µM of C=CC(=O)Nc1cc(Nc2cc(C(=O)c3ccc(OC)cc3)ccn2)c(OC)cc1N(C)CCN(C)C [EGFR_3365_51] .
Reply: 16.2

Ask: Query C=CC(=O)Nc1cc(Nc2nccc(C(=O)c3ccc(OCc4ccccc4)cc3)n2)c(OC)cc1N(C)CCN(C)C [EGFR_3365_16] next
Reply: 17.9

Ask: Query C=CC(=O)Nc1cc(Nc2nccc(C(=O)c3ccc(N(C)C)cc3)n2)c(OC)cc1N(C)CCN(C)C [EGFR_3365_73] next
Reply: 11.1

Ask: Query C=CC(=O)Nc1cc(Nc2cc(C(=O)c3ccc(N4CC(OC)C4)cc3)ccn2)c(OC)cc1N(C)CCN(C)C (racemic) [EGFR_3365_53] next
Reply: 10.1

Ask: Query C=CC(=O)Nc1cc(Nc2nccc(C(=O)c3ccc(N4CC[C@H](O)C4)cc3)n2)c(OC)cc1N(C)CCN(C)C.O=CO [EGFR_3365_112, formate] next
Reply: 6.8

Ask: Query C=CC(=O)Nc1cc(Nc2nccc(C(=O)c3ccc(N4CCC(N(C)C)CC4)cc3)n2)c(OC)cc1N(C)CCN(C)C [EGFR_3365_121a] next
Reply: 2.1

Ask: Query C=CC(=O)Nc1cc(Nc2cc(C(=O)c3ccc(OCCOC)cc3)ccn2)c(OC)cc1N(C)CCN(C)C [EGFR_3365_93] next
Reply: 19.5

Ask: Query C=CC(=O)Nc1cc(Nc2nccc(C(=O)c3ccc(N4CCCC4)cc3)n2)c(OC)cc1N(C)CCN(C)C [EGFR_3365_63] next
Reply: 15.6

Ask: Query C=CC(=O)Nc1cc(Nc2nccc(C(=O)c3ccc(N4CC(OC)C4)cc3)n2)c(OC)cc1N(C)CCN(C)C [EGFR_3365_61] next
Reply: 12.8

Ask: Query C=CC(=O)Nc1cc(Nc2nccc(C(=O)c3ccc(OC)cc3OCCC)n2)c(OC)cc1N(C)CCN(C)C [EGFR_3365_102] next
Reply: 21.9

Ask: Query C=CC(=O)Nc1cc(Nc2nccc(C(=O)c3ccc(OC(C)C)cc3OC)n2)c(OC)cc1N(C)CCN(C)C [EGFR_3365_103] next
Reply: 20.4

Ask: Query C=CC(=O)Nc1cc(Nc2nccc(C(=O)c3ccc(N4CC[C@@H](OC)C4)cc3)n2)c(OC)cc1N(C)CCN(C)C [EGFR_3365_115] next
Reply: 19.8

Ask: Query C=CC(=O)Nc1cc(Nc2nccc(C(=O)c3c(OC)cc(OC)cc3OC)n2)c(OC)cc1N(C)CCN(C)C [EGFR_3365_124] next
Reply: 22.2

Ask: Query C=CC(=O)Nc1cc(Nc2cc(C(=O)c3ccc(N(C)C)cc3)ccn2)c(OC)cc1N(C)CCN(C)C.O=C(O)C(F)(F)F [EGFR_3365_4, 2,2,2-trifluoroacetate] next
Reply: 0.9
